In this section we review reported TGI values for a set of compounds.
Tested on: CAKI-1 renal
experiment: NCI tumour cell line growth inhibition, 48 h
State the answer as a number, implicitly in µM.

*Q* // returns reported TGI for input O=C(O)c1cc2ccccc2c(N=Nc2ccccc2)c1O
*A* 84.2

*Q* Dear colleague, I am looking for the recorded TGI of the following compound: CS/C(=N\C(=S)N(C)C)N(c1ccccc1)c1nc(=[N+](C)C)ss1
*A* 80.2

*Q* So what does the record say about TGI for COc1cc(NS(C)(=O)=O)ccc1Nc1c2ccc([N+](=O)[O-])cc2nc2c(C)cccc12 ?
*A* 6.94

---

Some compounds, each annotated with its measured GI50.
System: SR leukemia
experiment: NCI tumour cell line growth inhibition, 48 h

Answered examples (2):
{"compound": "CCSCC1CC(O)(c2ccccc2)C(c2ccccc2)C(c2ccc(Cl)cc2)O1 (stereo not drawn)", "endpoint_value": "2150 nM"}
{"compound": "COc1cc2c(cc1O)CC[C@@H]1[C@@H]2CC[C@]2(C)[C@@H](NCCN(C)C)CC[C@@H]12", "endpoint_value": "98.9 nM"}

// next entry
*Q* For the compound CC1(C#N)N(C(=O)c2ccccc2)c2ccccc2N1C(=O)c1ccccc1 , what GI50 is on record?
*A* 45400 nM

---

Tested on: SF-268 CNS
experiment: NCI tumour cell line growth inhibition, 48 h; in the data active = GI50 below about 0.43 µM; inactive = the rest
The categories you may choose from are True = active, False = inactive

{"molecule": "FC(F)(F)c1nc(N2CCCC2)ncc1-c1nnnn1-c1ccc(Cl)cc1", "category_label": "False"}
{"molecule": "N#Cc1c(-c2ccccc2)nc(SCC2CO2)nc1N1CCOCC1 (stereo not given)", "category_label": "False"}
{"molecule": "CCSCC1CC(O)(c2ccccc2)C(c2ccccc2)C(c2ccc(Cl)cc2)O1 (stereo not given)", "category_label": "False"}
{"molecule": "F", "category_label": "False"}
{"molecule": "COC(=O)CCC(=O)C(=O)OC", "category_label": "False"}
{"molecule": "C=CC[n+]1c(/C=C/C=C2\\N(C)c3ccccc3C2(C)C)sc2ccc(OC)cc21", "category_label": "True"}

*Q* I would be grateful if you could indicate the recorded call for COc1ccc2oc(=O)cc(C(c3ccc[nH]3)c3ccc[nH]3)c2c1 .
*A* True

*Q* Called result for C/C(=N\NC(=O)c1sc(=S)n(C)c1N)c1cc2ccccc2o1
*A* False

---

System: NCI-H226 lung
experiment: NCI tumour cell line growth inhibition, 48 h
GI50 listing for selected molecules.

For orientation, consider the following solved cases.
{"molecule": "Cc1cccc(NC(=O)CCc2ccc(N3C(N)=NC(N)=NC3(C)C)cc2)c1", "GI50": "> 64.7 µM"}
{"molecule": "Cn1cc(-c2ccc3c(Nc4cccc(NC(=O)Nc5cccc(F)c5)c4)ncnc3c2)cn1", "GI50": "12.1 µM"}
{"molecule": "CC1(C#N)N(C(=O)c2ccccc2)c2ccccc2N1C(=O)c1ccccc1", "GI50": "91.8 µM"}
{"molecule": "N#Cc1c(-c2ccccc2)nc(SCC2CO2)nc1N1CCOCC1 (stereo not given)", "GI50": "11.5 µM"}
{"molecule": "COc1ccc2[nH]c(=O)c3c4ccccc4cn3c2c1", "GI50": "3.47 µM"}

*Q* Entry under review: COc1cc2c(cc1O)CC[C@@H]1[C@@H]2CC[C@]2(C)[C@@H](NCCN(C)C)CC[C@@H]12 . Reported GI50?
*A* 0.698 µM

*Q* Need GI50 of CC(=O)NCCc1c2c(c3nccc4c3c1Nc1ccccc1-4)OCS2 , thanks.
*A* 11.6 µM

*Q* Can you look up the measured GI50 of Cc1ccc2c(c1)C(C)Cc1c(ncnc1-n1cnc3ccccc31)N2C (stereo not given) for me?
*A* 3.5 µM

*Q* // lookup GI50 for Clc1ccc(CSC(Cn2ccnc2)c2ccc(Cl)cc2Cl)cc1 (stereo not given)
*A* 1.38 µM

*Q* Please give the measured GI50 for this molecule: CC1(C)N=C(N)N=C(N)N1c1cccc(CCCCc2cccc(S(=O)(=O)F)c2)c1
*A* 8.93 µM

Value source: PubChem BioAssay (NCI)
